Source: ChEMBL document CHEMBL4622895

experiment: AUC (0 to 6 hrs) in rat plasma at 10 mg/kg, po; format: ADME, organism-based; design: dose 10 mg/kg, time < 6 hr, route oral
Exercise: state measured AUC(0-t) at 6 h for each of the molecules provided.
Give bare numbers, in µM·h.

Below, each entry is followed by its recorded AUC(0-t) at 6 h result.
Lookup result for N=C(N)c1ccc2[nH]c(-c3n[nH]c(-c4ccccc4)c3O)nc2c1 ; measured AUC(0-t) at 6 h: 1.02

Lookup result for Cc1ccc(-c2ncnc(Nc3ccc(CN)cc3)c2O)cc1 ; measured AUC(0-t) at 6 h: 1.84

As a next step, examine the molecule that follows.
Lookup result for Cc1ccc(-c2ncnc(Nc3ccc4c(c3)CNC4=N)c2O)cc1 ; measured AUC(0-t) at 6 h: 0.198
